Entries and their DC50 values follow.
target: IKZF2 (Helios) (Homo sapiens); construct: Leu-Asp junction (codons ctcgac before the linker); mScarlet (behind P2A) (C, cleaved yes); expressed in transfected cells; assay: IKZF2 reporter degradation assay (HEK 293T IKZF2-mNeonGreen reporter cell line); assay type: cell-based; conditions: HEK 293T IKZF2-mNeonGreen reporter, 24 hours incubation

A selection of reference data follows.
COMPOUND	OBSERVED_MEASUREMENT
CN(C)C(=O)C1CCN(c2ccc(CN3CCC(O)(c4ccc5c(c4)CN(C4CCC(=O)NC4=O)C5=O)CC3)cc2)CC1 (stereo not drawn)	0.482 µM
O=C1CCC(N2Cc3cc(O[C@@H]4CCCC[C@@H]4N4CC(c5ccncc5Cl)C4)ccc3C2=O)C(=O)N1 (single isomer, unassigned) [Compound 96-B]	> 30 µM

Now turn to the next compound.
Note to self: DC50 recorded for O=C1CCC(N2Cc3cc(O[C@H]4CCCC[C@H]4N4CC(c5ncc(C(F)(F)F)cn5)C4)ccc3C2=O)C(=O)N1 (single isomer, unassigned) [Compound 122-B] was > 30 µM

----------
Reported DC50 values follow for various compounds
biological target: IKZF1 (Ikaros) (Homo sapiens); construct: mScarlet (behind P2A) (C, cleaved yes); expressed in transfected cells; experiment: IKZF1 reporter degradation assay (HEK 293T IKZF1-mNeonGreen reporter cell line); format: cell-based; settings: HEK 293T IKZF1 reporter cells, 24 hours incubation
Sequence (Q96SW2 whole entry partner): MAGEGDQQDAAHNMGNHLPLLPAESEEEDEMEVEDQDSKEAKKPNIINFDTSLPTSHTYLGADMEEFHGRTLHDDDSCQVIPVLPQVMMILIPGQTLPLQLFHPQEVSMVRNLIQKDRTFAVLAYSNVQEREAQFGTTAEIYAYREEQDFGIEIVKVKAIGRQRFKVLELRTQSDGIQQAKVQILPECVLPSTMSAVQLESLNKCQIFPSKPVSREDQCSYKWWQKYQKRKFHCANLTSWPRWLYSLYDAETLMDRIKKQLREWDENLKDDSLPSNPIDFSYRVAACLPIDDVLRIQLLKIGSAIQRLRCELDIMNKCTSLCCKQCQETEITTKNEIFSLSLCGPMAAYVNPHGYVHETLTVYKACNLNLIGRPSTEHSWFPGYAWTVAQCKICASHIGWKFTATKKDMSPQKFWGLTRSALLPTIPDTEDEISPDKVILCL
Sequence (Q16531 whole entry partner): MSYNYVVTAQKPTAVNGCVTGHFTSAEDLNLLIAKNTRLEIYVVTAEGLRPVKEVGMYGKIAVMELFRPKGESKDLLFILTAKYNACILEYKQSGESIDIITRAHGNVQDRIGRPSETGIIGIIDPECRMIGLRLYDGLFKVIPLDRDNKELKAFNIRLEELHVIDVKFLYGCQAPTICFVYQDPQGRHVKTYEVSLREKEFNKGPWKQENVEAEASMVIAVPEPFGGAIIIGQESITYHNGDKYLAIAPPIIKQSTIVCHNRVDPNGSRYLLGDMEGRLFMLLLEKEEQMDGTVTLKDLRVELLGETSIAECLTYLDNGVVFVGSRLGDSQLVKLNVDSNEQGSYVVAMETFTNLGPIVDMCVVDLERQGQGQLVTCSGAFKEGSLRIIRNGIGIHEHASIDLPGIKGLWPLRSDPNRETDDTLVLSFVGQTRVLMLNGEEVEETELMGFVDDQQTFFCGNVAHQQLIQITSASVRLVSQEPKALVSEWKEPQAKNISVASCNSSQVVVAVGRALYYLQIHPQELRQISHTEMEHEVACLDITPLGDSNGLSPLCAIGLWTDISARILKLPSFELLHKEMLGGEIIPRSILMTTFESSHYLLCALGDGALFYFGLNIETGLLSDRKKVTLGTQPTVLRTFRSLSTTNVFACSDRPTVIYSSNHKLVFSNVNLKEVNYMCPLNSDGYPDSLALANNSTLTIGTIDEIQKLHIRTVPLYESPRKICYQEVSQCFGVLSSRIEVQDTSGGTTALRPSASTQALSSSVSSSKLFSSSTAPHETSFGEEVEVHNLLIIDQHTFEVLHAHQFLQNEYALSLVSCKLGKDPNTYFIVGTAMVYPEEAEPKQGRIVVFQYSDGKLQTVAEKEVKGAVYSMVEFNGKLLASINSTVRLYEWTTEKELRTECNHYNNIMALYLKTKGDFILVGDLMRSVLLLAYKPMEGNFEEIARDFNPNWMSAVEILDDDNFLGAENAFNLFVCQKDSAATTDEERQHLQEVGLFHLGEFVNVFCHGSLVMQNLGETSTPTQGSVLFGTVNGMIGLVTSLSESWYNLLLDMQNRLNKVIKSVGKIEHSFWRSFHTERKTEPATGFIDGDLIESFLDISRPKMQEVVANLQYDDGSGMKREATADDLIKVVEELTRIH
Sequence (Q13422 whole entry): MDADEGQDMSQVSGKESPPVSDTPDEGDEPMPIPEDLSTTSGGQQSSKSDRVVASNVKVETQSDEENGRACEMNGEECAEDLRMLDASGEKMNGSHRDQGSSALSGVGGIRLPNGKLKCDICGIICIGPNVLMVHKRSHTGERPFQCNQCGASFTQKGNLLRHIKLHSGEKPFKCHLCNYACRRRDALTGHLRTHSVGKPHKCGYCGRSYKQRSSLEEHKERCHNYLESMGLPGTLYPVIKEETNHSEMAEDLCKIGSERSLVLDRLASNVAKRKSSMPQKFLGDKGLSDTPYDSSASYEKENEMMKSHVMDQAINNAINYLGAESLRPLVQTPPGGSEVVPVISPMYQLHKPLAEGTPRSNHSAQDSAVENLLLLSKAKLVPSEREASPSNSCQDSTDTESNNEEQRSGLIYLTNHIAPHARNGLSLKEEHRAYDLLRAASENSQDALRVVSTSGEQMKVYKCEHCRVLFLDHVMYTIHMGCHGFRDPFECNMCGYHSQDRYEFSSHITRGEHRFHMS

COMPOUND	TARGET_OR_TEST_SYSTEM	DC50
O=C1CCC(N2Cc3cc(OC4CCCCC4N4CC(c5ccnc(C(F)(F)F)c5)C4)ccc3C2=O)C(=O)N1 (stereo not drawn)	IKZF1 (Ikaros) (Homo sapiens)	> 30 µM
O=C1CCC(N2Cc3cc(OC4CCCCC4N4CC(c5cnc6ccccc6n5)C4)ccc3C2=O)C(=O)N1 (stereo not drawn)	IKZF1 (Ikaros) (Homo sapiens)	> 30 µM

Form: compound = O=C1CCC(N2Cc3cc(OC4CCCCC4N4CC(c5ncc(F)cn5)C4)ccc3C2=O)C(=O)N1 (stereo not drawn) ; DC50 = > 30 µM

----------
target: IKZF2 (Helios) (Homo sapiens); construct: Leu-Asp junction (codons ctcgac before the linker); mScarlet (behind P2A) (C, cleaved yes); expressed in transfected cells; experiment: IKZF2 reporter degradation assay (HEK 293T IKZF2-mNeonGreen reporter cell line); assay type: cell-based; settings: HEK 293T IKZF2-mNeonGreen reporter, 24 hours incubation
Assign labels as follows, please: rule met for DC50 below 20 nM; rule not met for DC50 equal to or exceeding 20 nM.

// known answers, use as guide
COMPOUND	ASSIGNED_LABEL
O=C1CCC(N2Cc3cc(OC4CCC[C@@H]4N4CC(c5cncnc5)C4)ccc3C2=O)C(=O)N1 (mixture of isomers) [Compound 196-B]	rule not met
Cc1nccc(C2CN(C3CCCCC3Oc3ccc4c(c3)CN(C3CCC(=O)NC3=O)C4=O)C2)n1 (stereo not shown)	rule not met
COc1ccc(C2CN([C@H]3CCCC3Oc3ccc4c(c3)CN(C3CCC(=O)NC3=O)C4=O)C2)cn1 (mixture of isomers) [Compound 202-B]	rule not met
O=C1CCC(N2Cc3cc(O[C@H]4CCCC[C@@H]4N4CC(c5ncc(C(F)(F)F)cn5)C4)ccc3C2=O)C(=O)N1 (mixture of isomers) [Compound 187-B]	rule not met
O=C1CCC(N2Cc3cc(O[C@@H]4CCCC[C@H]4N4CC(c5ccc(C(F)(F)F)cn5)C4)ccc3C2=O)C(=O)N1 (single isomer, unassigned) [Compound 128-B]	rule met

query: hey, is DC50 for O=C1CCC(N2Cc3cc(O[C@@H]4CCCC[C@H]4N4CC(c5ncc(C6CC6)cn5)C4)ccc3C2=O)C(=O)N1 (single isomer, unassigned) [Compound 133-B] lower than 20 nM or not?
result: rule not met

query: Is it true that DC50 reported for O=C1CCC(N2Cc3cc(O[C@H]4CCCC[C@@H]4N4CC(c5cc(Cl)ccn5)C4)ccc3C2=O)C(=O)N1 (mixture of isomers) is less than 20 nM?
result: rule not met

query: Here's an entry: O=C1CCC(N2Cc3cc(O[C@H]4CCCC[C@@H]4N4CC(c5ccc(Cl)cn5)C4)ccc3C2=O)C(=O)N1 (single isomer, unassigned) [Compound 100-B] . Is its DC50 below 20 nM?
result: rule met

query: Below 20 nM on DC50? Entry O=C1CCC(N2Cc3cc(O[C@H]4CCCC[C@@H]4N4CC(c5ncc(C6CC6)cn5)C4)ccc3C2=O)C(=O)N1 (single isomer, unassigned) [Compound 134-B]
result: rule met

query: Is DC50 strictly under 20 nM for the entry CC1(C(=O)N2CCC(C3CN([C@H]4CCCC[C@@H]4Oc4ccc5c(c4)CN(C4CCC(=O)NC4=O)C5=O)C3)CC2)CCC1 (stereo partly shown) ?
result: rule met

----------
Biological target: IKZF2 (Helios) (Homo sapiens)
Construct: Leu-Asp junction (codons ctcgac before the linker); mScarlet (behind P2A) (C, cleaved yes); expressed in transfected cells
Assay: IKZF2 reporter degradation assay (HEK 293T IKZF2-mNeonGreen reporter cell line)
Type: cell-based
Conditions: HEK 293T IKZF2-mNeonGreen reporter, 24 hours incubation
Experimental: Polycistronic plasmids were constructed for the mammalian expression of fluorescent reporter fusions of human transcription factors IKZF1 (Ikaros), IKZF2 (Helios), and IKZF3 (Aiolos). […] The DNA sequences of the open reading frames are as follows: […] The IKZF1/IKZF2/IKZF3 degradation assays were carried out by harvesting the HEK 293T reporter cell lines and resuspending the cells in media formulated for reduced background fluorescence (FluoroBrite; Thermo Fisher). […]
Parameter: DC50. Scope: all listed entries.

Examples with answers:
COMPOUND	DC50
O=C1CCC(N2Cc3cc(O[C@@H]4CCCC[C@@H]4N4CC(c5ccc(Cl)cn5)C4)ccc3C2=O)C(=O)N1 (single isomer, unassigned)	> 30 µM
O=C1NC(=O)C2(N3Cc4cc(O[C@@H]5CCCC[C@@H]5N5CC(c6ncc(Cl)cn6)C5)ccc4C3=O)CC1C2 (racemic)	> 30 µM

Recorded DC50 (compound O=C1CCC(N2Cc3cc(O[C@@H]4CCCC[C@@H]4N4CC(c5cncc(Cl)c5)C4)ccc3C2=O)C(=O)N1 (stereo partly drawn) [Compound 105-B] ): > 30 µM

----------
target: IKZF2 (Helios) (Homo sapiens, UniProt Q96SW2+Q9UKS7); construct: Leu-Asp junction (codons ctcgac before the linker); mScarlet (behind P2A) (C, cleaved yes); expressed in transfected cells; experiment: IKZF2 reporter degradation assay (HEK 293T IKZF2-mNeonGreen reporter cell line); format: cell-based; details: HEK-293T, 24 h, 1 μM compound, HEK 293T IKZF2 reporter cells, 24 hours incubation
Sequence (Q9UKS7 whole entry, one chain of several): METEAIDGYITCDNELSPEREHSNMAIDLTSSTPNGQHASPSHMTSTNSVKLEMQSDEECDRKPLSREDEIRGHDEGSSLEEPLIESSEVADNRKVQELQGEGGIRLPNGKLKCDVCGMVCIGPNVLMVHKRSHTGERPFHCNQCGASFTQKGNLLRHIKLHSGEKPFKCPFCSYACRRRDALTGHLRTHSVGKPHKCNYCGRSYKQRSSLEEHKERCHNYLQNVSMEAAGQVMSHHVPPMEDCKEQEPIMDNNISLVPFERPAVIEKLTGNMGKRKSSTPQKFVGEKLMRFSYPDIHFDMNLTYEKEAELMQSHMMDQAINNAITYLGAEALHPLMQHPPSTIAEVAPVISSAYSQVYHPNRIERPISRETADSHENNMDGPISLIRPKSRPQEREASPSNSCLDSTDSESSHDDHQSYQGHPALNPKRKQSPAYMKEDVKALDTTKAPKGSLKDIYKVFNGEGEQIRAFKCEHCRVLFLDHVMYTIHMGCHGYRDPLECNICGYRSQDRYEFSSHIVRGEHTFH
Label True when inhibition at 1 µM >= 40%; otherwise False.

COMPOUND	ASSIGNED_LABEL
O=C1CCC(N2Cc3cc(OC4CCCCC4N4CC(c5ccnc(C(F)(F)F)c5)C4)ccc3C2=O)C(=O)N1 (centres unmarked)	False
COc1ncc(C2CN(C3CCCCC3Oc3ccc4c(c3)CN(C3CCC(=O)NC3=O)C4=O)C2)cn1 (centres unmarked)	True
O=C1CCC(N2Cc3cc(OC4CCCCC4N4CC(c5ncc(F)cn5)C4)ccc3C2=O)C(=O)N1 (centres unmarked)	True

Now look at this entry.
query: Evaluate COc1ccc(C2CN(C3CCCCC3Oc3ccc4c(c3)CN(C3CCC(=O)NC3=O)C4=O)C2)cn1 (centres unmarked) : inhibition at 1 µM at minimum 40%?
result: True

----------
target: IKZF2 (Helios) (Homo sapiens, UniProt Q96SW2+Q9UKS7); construct: Leu-Asp junction (codons ctcgac before the linker); mScarlet (behind P2A) (C, cleaved yes); expressed in transfected cells; assay: IKZF2 reporter degradation assay (HEK 293T IKZF2-mNeonGreen reporter cell line); format: cell-based; conditions: @ 1 μM, HEK 293T IKZF2-mNeonGreen reporter, 24 hours incubation
ENDPOINT_NAME: IKZF2 % Degradation @ 1 μM (%)
Report only the number, with the unit % understood.

# annotated cases, reported IKZF2 % Degradation @ 1 μM shown
COMPOUND	TARGET_OR_TEST_SYSTEM	OBSERVED_MEASUREMENT
O=C1CCC(N2Cc3cc(O[C@H]4CCCC[C@@H]4N4CC(c5ccncc5F)C4)ccc3C2=O)C(=O)N1 (single isomer, unassigned)	IKZF2 (Helios) (Homo sapiens, UniProt Q96SW2+Q9UKS7)	69.9
O=C1CCC(N2Cc3cc(O[C@H]4CCCC[C@@H]4N4CC(c5cncc(Cl)c5)C4)ccc3C2=O)C(=O)N1 (single isomer, unassigned)	IKZF2 (Helios) (Homo sapiens, UniProt Q96SW2+Q9UKS7)	68.4

Now look at this entry.
IKZF2 % Degradation @ 1 μM value, target or system IKZF2 (Helios) (Homo sapiens, UniProt Q96SW2+Q9UKS7), for O=C1CCC(N2Cc3cc(O[C@H]4CCCC[C@@H]4N4CC(c5ncc(C(F)(F)F)cn5)C4)ccc3C2=O)C(=O)N1 (single isomer, unassigned) : 69.6
